# assayed target: MAP kinase-activated protein kinase 2 (Homo sapiens)
# Sequence (P49137 whole entry): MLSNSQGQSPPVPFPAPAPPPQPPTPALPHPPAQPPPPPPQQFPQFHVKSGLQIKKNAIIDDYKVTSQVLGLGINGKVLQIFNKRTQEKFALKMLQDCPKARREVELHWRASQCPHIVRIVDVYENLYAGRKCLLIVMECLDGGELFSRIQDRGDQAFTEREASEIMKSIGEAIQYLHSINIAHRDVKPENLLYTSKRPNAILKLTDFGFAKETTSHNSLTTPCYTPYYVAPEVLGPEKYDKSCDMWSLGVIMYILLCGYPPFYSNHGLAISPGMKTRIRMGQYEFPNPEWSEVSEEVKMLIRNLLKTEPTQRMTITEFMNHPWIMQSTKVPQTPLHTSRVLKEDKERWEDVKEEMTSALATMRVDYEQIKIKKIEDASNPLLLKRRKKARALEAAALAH
# protocol text: Inhibition of MK2
quantity: pIC50
Expect pIC50 as a plain number equal to -log10 of the molar concentration.

Could you share which pIC50 value was measured for O=C1NC(=O)c2ccc(I)cc2/C1=C/NCc1ccc(-c2ccoc2)c(O)c1 ?
4.72

----------
# assayed target: Cyclin-dependent kinase 1/cyclin B1 (Homo sapiens, UniProt P06493)
# Sequence (P06493 whole entry): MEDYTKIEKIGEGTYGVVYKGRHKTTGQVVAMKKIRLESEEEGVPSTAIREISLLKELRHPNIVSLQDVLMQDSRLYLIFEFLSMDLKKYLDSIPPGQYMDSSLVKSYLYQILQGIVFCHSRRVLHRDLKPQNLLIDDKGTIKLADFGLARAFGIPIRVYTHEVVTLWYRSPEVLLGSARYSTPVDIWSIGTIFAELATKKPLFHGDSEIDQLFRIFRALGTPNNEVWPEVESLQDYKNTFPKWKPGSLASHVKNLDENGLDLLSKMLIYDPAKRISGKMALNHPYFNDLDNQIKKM
# Sequence (P14635 whole entry, further chain): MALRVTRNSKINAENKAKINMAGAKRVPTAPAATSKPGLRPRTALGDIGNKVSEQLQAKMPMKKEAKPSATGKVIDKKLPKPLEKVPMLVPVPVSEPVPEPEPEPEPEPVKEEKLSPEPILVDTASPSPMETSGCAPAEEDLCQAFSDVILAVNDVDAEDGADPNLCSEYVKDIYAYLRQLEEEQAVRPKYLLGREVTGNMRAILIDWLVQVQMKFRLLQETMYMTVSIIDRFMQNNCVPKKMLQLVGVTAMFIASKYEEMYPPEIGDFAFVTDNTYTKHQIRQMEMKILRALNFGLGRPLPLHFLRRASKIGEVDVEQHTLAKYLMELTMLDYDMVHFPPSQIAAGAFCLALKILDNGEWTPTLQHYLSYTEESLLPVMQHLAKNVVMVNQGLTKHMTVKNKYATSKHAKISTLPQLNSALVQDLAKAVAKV
# protocol text: Inhibition of CDK1/Cyclin B1 assessed as inhibition of retinoblastoma susceptibility gene product phosphorylation
pIC50 for assorted molecules
Expect pIC50 as a plain number equal to -log10 of the molar concentration.

Could you share which pIC50 value was measured for COc1ccc(CN/C=C2\C(=O)NC(=O)c3ccc(-c4ccccc4)cc32)cc1O ?
4.46

What do you get for CCCOc1ccc(CN/C=C2\C(=O)NC(=O)c3ccc(I)cc32)nc1O ?
5.00

What do you get for O=C1NC(=O)c2ccccc2/C1=C/NCc1ccc(O)c(O)c1 ?
4.44

What do you get for COc1ccc(CN/C=C2\C(=O)NC(=O)c3ccccc32)cc1O ?
4.31

What do you get for O=C1NC(=O)c2ccc(C3CCCC3)cc2/C1=C/NCc1cc(O)c(-c2ccoc2)cn1 ?
5.51

What do you get for COc1cnc(CN/C=C2\C(=O)NC(=O)c3ccc(I)cc32)cc1O ?
4.83

What do you get for CC(C)(C)c1ccc2c(c1)/C(=C/NCc1cc(O)c(-c3ccoc3)cn1)C(=O)NC2=O ?
5.02

What do you get for CCCOc1cnc(CN/C=C2\C(=O)NC(=O)c3ccc(I)cc32)cc1O ?
4.60

What do you get for CCCOc1cnc(CN/C=C2\C(=O)NC(=O)c3ccc(C4CCCC4)cc32)cc1O ?
5.51

What do you get for O=C1NC(=O)c2ccc(I)cc2/C1=C/NCc1ccc(-c2ccoc2)c(O)c1 ?
4.61

What do you get for CCCOc1cnc(CN/C=C2\C(=O)NC(=O)c3ccc(C(C)(C)C)cc32)cc1O ?
5.21

----------
# assayed target: Mitogen-activated protein kinase kinase kinase 8 (Homo sapiens, UniProt P41279)
# Sequence (P41279 whole entry): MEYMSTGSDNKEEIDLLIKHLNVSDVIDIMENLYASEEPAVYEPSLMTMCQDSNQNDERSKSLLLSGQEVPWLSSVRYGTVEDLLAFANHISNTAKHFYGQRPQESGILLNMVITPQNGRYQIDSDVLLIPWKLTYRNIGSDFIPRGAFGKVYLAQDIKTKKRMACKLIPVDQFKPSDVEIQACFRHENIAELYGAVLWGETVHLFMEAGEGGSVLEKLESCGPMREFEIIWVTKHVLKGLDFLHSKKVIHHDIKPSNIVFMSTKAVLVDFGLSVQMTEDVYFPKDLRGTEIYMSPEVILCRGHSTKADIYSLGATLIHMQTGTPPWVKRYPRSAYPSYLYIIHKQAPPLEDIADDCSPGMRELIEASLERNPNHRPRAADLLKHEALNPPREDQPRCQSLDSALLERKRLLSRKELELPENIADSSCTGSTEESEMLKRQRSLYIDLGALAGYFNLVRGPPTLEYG
# protocol text: Inhibition of Tpl2
quantity: IC50

Could you share which IC50 value was measured for O=C1NC(=O)c2ccc(I)cc2/C1=C/NCc1ccc(-c2ccoc2)c(O)c1 ?
> 4 µM

----------
# assayed target: Serine/threonine-protein kinase mTOR (Homo sapiens, UniProt P42345)
quantity: pIC50
Expect pIC50 as a plain number equal to -log10 of the molar concentration.

Could you share which pIC50 value was measured for O=C1NC(=O)c2ccc(I)cc2/C1=C/NCc1ccc(-c2ccoc2)c(O)c1 ?
4.74

----------
# assayed target: Proto-oncogene tyrosine-protein kinase Src (Homo sapiens, UniProt P12931)
# Sequence (P12931 2-536 limits assumed): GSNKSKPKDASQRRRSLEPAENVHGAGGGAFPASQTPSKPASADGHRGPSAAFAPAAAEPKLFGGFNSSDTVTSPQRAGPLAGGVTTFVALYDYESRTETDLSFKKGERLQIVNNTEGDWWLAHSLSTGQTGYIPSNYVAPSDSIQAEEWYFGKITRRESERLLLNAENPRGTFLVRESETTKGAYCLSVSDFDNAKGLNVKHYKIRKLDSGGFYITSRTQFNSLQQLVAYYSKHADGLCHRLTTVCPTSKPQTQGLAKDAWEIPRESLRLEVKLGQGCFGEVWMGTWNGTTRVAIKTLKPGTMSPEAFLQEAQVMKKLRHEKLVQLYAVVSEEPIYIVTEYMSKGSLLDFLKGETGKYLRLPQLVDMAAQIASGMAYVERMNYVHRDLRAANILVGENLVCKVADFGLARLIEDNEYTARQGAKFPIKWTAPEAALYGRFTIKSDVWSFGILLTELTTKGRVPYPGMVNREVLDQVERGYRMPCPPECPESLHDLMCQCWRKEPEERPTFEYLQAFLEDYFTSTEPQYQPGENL
quantity: IC50

Could you share which IC50 value was measured for O=C1NC(=O)c2ccc(I)cc2/C1=C/NCc1ccc(-c2ccoc2)c(O)c1 ?
> 30 µM

----------
half-life for assorted compounds
# protocol text: Metabolic stability in Sprague-Dawley rat liver microsome assessed as half life after 15 mins using NADPH/UDPGA cofactor
# Assay type: ADME
# condition description: liver microsomes
Reply numerically in min, unit not repeated.

Could you share which half-life value was measured for O=C1NC(=O)c2ccc(I)cc2/C1=C/NCc1cc(O)c(-c2ccoc2)cn1 ?
22

What do you get for CCCOc1ccc(CN/C=C2\C(=O)NC(=O)c3ccc(I)cc32)cc1O ?
15

What do you get for COc1ccc(CN/C=C2\C(=O)NC(=O)c3ccc(I)cc32)cc1O ?
6

New cases:
Could you share which half-life value was measured for O=C1NC(=O)c2ccc(I)cc2/C1=C/NCc1ccc(-c2ccoc2)c(O)c1 ?
18

----------
# assayed target: Signal transducer and activator of transcription 3 (Homo sapiens, UniProt P40763)
# Sequence (P40763 whole entry): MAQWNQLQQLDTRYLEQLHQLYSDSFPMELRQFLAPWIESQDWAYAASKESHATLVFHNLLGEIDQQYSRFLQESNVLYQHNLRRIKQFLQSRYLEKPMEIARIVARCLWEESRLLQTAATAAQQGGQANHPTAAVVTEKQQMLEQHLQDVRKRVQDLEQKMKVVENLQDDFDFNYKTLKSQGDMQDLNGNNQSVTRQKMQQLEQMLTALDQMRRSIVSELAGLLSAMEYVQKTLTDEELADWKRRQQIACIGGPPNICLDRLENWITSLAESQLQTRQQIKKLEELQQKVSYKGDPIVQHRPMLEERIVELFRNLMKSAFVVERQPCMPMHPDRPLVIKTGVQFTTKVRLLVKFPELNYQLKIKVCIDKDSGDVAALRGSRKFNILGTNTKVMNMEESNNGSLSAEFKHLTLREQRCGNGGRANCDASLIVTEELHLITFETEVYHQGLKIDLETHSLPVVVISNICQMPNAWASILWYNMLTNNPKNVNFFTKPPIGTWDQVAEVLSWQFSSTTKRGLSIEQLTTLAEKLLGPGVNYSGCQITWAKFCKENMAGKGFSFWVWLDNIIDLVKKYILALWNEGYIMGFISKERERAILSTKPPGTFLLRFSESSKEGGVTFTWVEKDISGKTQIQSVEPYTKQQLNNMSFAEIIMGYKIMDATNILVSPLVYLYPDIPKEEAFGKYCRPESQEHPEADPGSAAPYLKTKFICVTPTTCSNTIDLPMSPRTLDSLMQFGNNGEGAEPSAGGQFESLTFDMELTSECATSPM
quantity: IC50 (nM)
Reply numerically in nM, unit not repeated.

Could you share which IC50 value was measured for O=C1NC(=O)c2ccc(I)cc2/C1=C/NCc1ccc(-c2ccoc2)c(O)c1 ?
1700

----------
# protocol text: Metabolic stability in Sprague-Dawley rat liver microsome assessed as half life after 15 mins using NADPH cofactor
# Type: ADME
# condition description: liver microsomes
quantity: half-life

Check out these entries, answers already filled in.
Could you share which half-life value was measured for CCCOc1cnc(CN/C=C2\C(=O)NC(=O)c3ccc(I)cc32)cc1O ?
> 30 min

What do you get for O=C1NC(=O)c2ccc(I)cc2/C1=C/NCc1cc(O)c(-c2ccoc2)cn1 ?
> 30 min

What do you get for CCCOc1ccc(CN/C=C2\C(=O)NC(=O)c3ccc(I)cc32)nc1O ?
> 30 min

What do you get for COc1ccc(CN/C=C2\C(=O)NC(=O)c3ccc(I)cc32)cc1O ?
18 min

What do you get for COc1cnc(CN/C=C2\C(=O)NC(=O)c3ccc(I)cc32)cc1O ?
> 30 min

New cases:
Could you share which half-life value was measured for O=C1NC(=O)c2ccc(I)cc2/C1=C/NCc1ccc(-c2ccoc2)c(O)c1 ?
> 30 min

What do you get for CCCOc1ccc(CN/C=C2\C(=O)NC(=O)c3ccc(I)cc32)cc1O ?
> 30 min

----------
# assayed target: Cyclin-dependent kinase 4/cyclin D1 (Homo sapiens, UniProt P11802+P24385)
# Sequence (P11802 whole entry): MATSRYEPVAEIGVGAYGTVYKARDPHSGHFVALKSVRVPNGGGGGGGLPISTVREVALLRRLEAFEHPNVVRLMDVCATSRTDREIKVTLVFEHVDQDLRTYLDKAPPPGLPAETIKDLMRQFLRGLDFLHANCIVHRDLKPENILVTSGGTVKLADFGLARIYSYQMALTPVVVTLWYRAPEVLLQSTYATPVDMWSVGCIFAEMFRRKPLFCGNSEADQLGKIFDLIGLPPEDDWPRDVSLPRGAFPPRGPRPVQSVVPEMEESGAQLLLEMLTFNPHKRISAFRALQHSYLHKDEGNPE
# Sequence (P24385 whole entry): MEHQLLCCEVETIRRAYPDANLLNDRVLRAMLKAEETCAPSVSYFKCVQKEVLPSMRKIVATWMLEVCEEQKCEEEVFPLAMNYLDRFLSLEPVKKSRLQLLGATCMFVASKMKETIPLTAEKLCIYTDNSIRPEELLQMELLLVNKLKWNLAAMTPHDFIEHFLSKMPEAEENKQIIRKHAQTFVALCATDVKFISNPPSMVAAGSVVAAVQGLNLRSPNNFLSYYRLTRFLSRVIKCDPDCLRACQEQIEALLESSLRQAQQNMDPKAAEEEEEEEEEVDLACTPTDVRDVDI
# protocol text: Inhibition of CDK4/Cyclin D1 assessed as inhibition of retinoblastoma susceptibility gene product phosphorylation
pIC50: −log10 of the molar value.
quantity: pIC50

Could you share which pIC50 value was measured for O=C1NC(=O)c2ccccc2/C1=C/NCc1ccc(O)cc1 ?
> 4.30

----------
# assayed target: Cyclin-dependent kinase 4/cyclin D1 (Homo sapiens)
# protocol text: Inhibition of CDK4/Cyclin D1 assessed as inhibition of retinoblastoma susceptibility gene product phosphorylation
quantity: log10(IC50) (log10 of the value in nM)
Each number you see is log10 of IC50, and the unit inside the log is nM.

What value of log10(IC50) on Cyclin-dependent kinase 4/cyclin D1 (Homo sapiens) does COc1ccc(CN/C=C2\C(=O)NC(=O)c3ccc(-c4ccoc4)cc32)cc1O have?
0.30

What do you get for O=C1NC(=O)c2ccc(I)cc2/C1=C/NCc1ccc(-c2ccco2)c(O)c1 ?
2.00

What do you get for COc1coc(CN/C=C2\C(=O)NC(=O)c3ccc(Br)cc32)cc1=O ?
3.11

New cases:
What value of log10(IC50) on Cyclin-dependent kinase 4/cyclin D1 (Homo sapiens) does O=C1NC(=O)c2ccc(Br)cc2/C1=C/NCc1ccc(O)c(O)c1 have?
1.60

What do you get for COc1cc(CN/C=C2\C(=O)NC(=O)c3ccc(Br)cc32)cc(O)c1OC ?
0.85

What do you get for CC(C)(C)c1ccc2c(c1)/C(=C/NCc1cc(O)c(-c3ccoc3)cn1)C(=O)NC2=O ?
1.30

What do you get for COc1ccc(CN/C=C2\C(=O)NC(=O)c3ccccc32)cc1O ?
2.28

What do you get for COc1cnc(CN/C=C2\C(=O)NC(=O)c3ccc(I)cc32)nc1O ?
2.64

What do you get for O=C1NC(=O)c2ccc(I)cc2/C1=C/NCc1ccc(-c2ccoc2)c(O)c1 ?
1.78

What do you get for O=C1NC(=O)c2ccc(I)cc2/C1=C/NCc1ccc(-c2ccncc2)c(O)c1 ?
0.90

----------
# protocol text: Inhibition of p70S6
quantity: IC50

Could you share which IC50 value was measured for O=C1NC(=O)c2ccc(I)cc2/C1=C/NCc1ccc(-c2ccoc2)c(O)c1 ?
> 30 µM

----------
# assayed target: Cyclin-dependent kinase 2 (Homo sapiens, UniProt P24941)
# protocol text: Inhibition of CDK2/Cyclin E assessed as inhibition of retinoblastoma susceptibility gene product phosphorylation
quantity: log10 IC50 (log10 of the value in µM)
Each number you see is log10 of IC50, and the unit inside the log is µM.

What value of log10 IC50 on Cyclin-dependent kinase 2 (Homo sapiens, UniProt P24941) does CCCOc1ccc(CN/C=C2\C(=O)NC(=O)c3ccc(I)cc32)cc1O have?
0.41

What do you get for COc1ccc(CN/C=C2\C(=O)NC(=O)c3ccc(F)cc32)cc1O ?
0.82

What do you get for O=C1NC(=O)c2ccccc2/C1=C/NCc1cccc(O)c1 ?
1.23

What do you get for COc1ccc(CN/C=C2\C(=O)NC(=O)c3ccccc32)cc1O ?
0.84

What do you get for CCCOc1ccc(CN/C=C2\C(=O)NC(=O)c3ccc(I)cc32)nc1O ?
-0.15

----------
# assayed target: Cyclin-dependent kinase 2 (Homo sapiens)
# protocol text: Inhibition of CDK2/Cyclin E assessed as inhibition of retinoblastoma susceptibility gene product phosphorylation
quantity: pIC50
Expect pIC50 as a plain number equal to -log10 of the molar concentration.

Could you share which pIC50 value was measured for Cc1ccc(CN/C=C2\C(=O)NC(=O)c3ccc(I)cc32)cc1O ?
4.87

What do you get for COc1ccc(CN/C=C2\C(=O)NC(=O)c3ccc(-n4cccc4)cc32)cc1O ?
5.51

What do you get for COc1ccc(CN/C=C2\C(=O)NC(=O)c3ccc(-c4ccccc4)cc32)cc1O ?
4.59

New cases:
Could you share which pIC50 value was measured for O=C1NC(=O)c2ccccc2/C1=C/NCc1ccc(O)cc1 ?
4.76

What do you get for COc1coc(CN/C=C2\C(=O)NC(=O)c3ccc(Br)cc32)cc1=O ?
4.77

What do you get for CCCOc1ccc(CN/C=C2\C(=O)NC(=O)c3ccc(Br)cc32)cc1O ?
4.46
